Where do the numbers come from? From the supplement of paper PMC9170038.

Exercise: for every item that follows, state its recorded apparent KD of MS2 coat protein.
Test system: MS2 coat protein
method_summary: apparent KD of MS2 coat protein; higher = weaker reporter binding
conditions_used: Eterna round: R107; input ligand: arginine 13.2 mM

// known answers, use as guide
AUCGUACCUGAGGAUACCAGCAUGUGAUCAUAACAUGAGGAUCACCCAUGUAAUCAGUGAUGCCCUUGGCAGCUUAGUCGAUACA [Same State - Theophylline B (Freestyle 7)] | 58.7 nM
AAUAAGUAUCUGCUAGGUGAUCCAGCAGAUACCAGCUAGGAAACUAGCCCUUGGCAGCUGCAACAUGAGGAUCACCCAUGUAAUA [(T)'-(M)'-(T1)-(T2)-(M1)-(M2)_Design3] | 98.7 nM
UAUAUUGUGAUGGAUACCAGCAGAGAAAACGUUUAUCCUAACAUGAGGAUCACCCAUGUAUGCCCUUGGCAGCUGUUGUGGUAUA [8.P] | 34.7 nM
CUACAUUUGUAGAAACCGGUCAACAAUAAUCGAGGACCGGUACGGCCGCCACUCGUAUAAUUUUAUACAUGAGGAUCACCCAUGU [Tryptophan A 3] | 13.7 nM

Now let's try a different one.
*Q* Fill in the blank: the reported apparent KD of MS2 coat protein of AAAAGUAGGUCCAAUAAAACUACAUGUGAAGGAGCGCGCGAAAGCGCAGGUAGGUCGCACAUGAGGAUCACCCAUGUCCUACAAA [MAT - Exclusion Arginine A - Mod of Eli - D6] is ____.
*A* 39.8 nM

---

Exercise: for every item that follows, state its recorded apparent KD of MS2 coat protein.
Tested on: MS2 coat protein
method_summary: apparent KD of MS2 coat protein; designed switch direction (-1 OFF switch, 1 ON switch): -1; higher = weaker reporter binding
conditions_used: input ligand: FMN 200 uM
Give bare numbers, in nM.

// known answers, use as guide
ACUUAUAGAGGAUAUACAGUUAAUUACAUGAGGAUCACCCAUGUUCUUCAAUGUAUAUAAGUAGAAGGCUAAGGAA [Ex5 Malc#5 mod] (Eterna round: R97, puzzle: Exclusion 5) | 64.3
AUCGUGCAGCUUUGCUGUACGAGUACAUGAGGAUCACCCAUGUAGGAUAUGGUACGCUUUGCGUGCUAGAAGGAUAUGAGAUUA [EX ENG3 1.48] (Eterna round: R96, puzzle: Exclusion NG 3) | 40.2
AAUGGAUGUGUUAGGAUAUCCGGAGGGAAACCUCCGGAGAAGGAACAUGAGGAUCACCCAUGUAUGUAAAAUAC [AK-MS2ROC-r4-Bmoexclusion4-3] (Eterna round: R97, puzzle: Brourd's mod of Exclusion 4) | 449

Give me apparent KD of MS2 coat protein for each of these sequences, listed below.
1. GGUCAGAUGGUAGGAUAUCCAUAUCGAGUGACCCUUUCAUAACAUGAGGAUCACCCAUGUCGGUGGGAGAAGGGCCGUAUGGCG [salish99_ExNG02_R04_022] (Eterna round: R96, puzzle: Exclusion NG 2)
2. GCCGGAUAAGUGAGGAUAUGCCUAUGGAUACGUAGGCAGAAGGCACAUGAGGAUCACCCAUGUACCUCUCCGGC [JL-BMX4-4.25 Eli mod] (Eterna round: R97, puzzle: Brourd's mod of Exclusion 4)
3. GGGCCUCAUGUGAGGAUAUUGGAUGAGGUGCGAGACGAGAAGGCACAUGAGGAUCACCCAUGUAACUAACCAAA [Bimaen] (Eterna round: R97, puzzle: Brourd's mod of Exclusion 4)
4. GGGAAACAUGAGGAUCACCCAUGUCAGGAUAUCCGCUUUAAUUAAAUAAAUAAAUAAUGGAGAAGGGACAGCCC [-12.9, -10.5 kcal, 39% A] (Eterna round: R97, puzzle: Exclusion 1)

*A*
[69.8, 116, 34.8, 33.6]

*Q* Fill in the blank: the reported apparent KD of MS2 coat protein of CGCCCUCCGGUGAGGAUAUUGCCCACCAUGGUCGGCAAGAAGGCACUUGAGGAUCACCCAAGUAAAACAAAUAA [Beraus] (Eterna round: R97, puzzle: Brourd's mod of Exclusion 4) is ____.
*A* 450

---

System: K4 kissing-loop RNA reporter;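 further: bound reporter read as fluorescence of individual clusters on recovered sequencing chips by microscopy, with normalized cluster intensities fitted with a binding model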
method_summary: apparent KD of K4 kissing-loop reporter; higher = weaker reporter binding
conditions_used: Eterna round: R107; input ligand: none
If the reported apparent KD of K4 kissing-loop reporter equals or exceeds 200 nM, assign MET. If not, assign NOT MET.

GGCCGAAGAGAAGGAUAUGGUUUCACGCGUCGUUAGUGAUGUUAAUGCGCAUGCCUUAGUAUAGAGCCAGAAGGUCUGGUCAGAA [theeternabot_sameState_KL_FMN_B_34] | MET

*Q* Please tell me: is the sequence UGGAGUUGACGAAAAGUCAACUCCUGAGAUACCAGUGACGAAAGUCACCCUUGGCAGCUCACUGCCAGUGAUGUUGGAAAUAAAA [#01 K4 Theophylline A Same State] at or over 200 nM in terms of apparent KD of K4 kissing-loop reporter?
*A* MET

*Q* Please tell me: is the sequence `GCCUACGAUGCAGGAUAUAGCUCGCGAGUGAUGUUCGCAGCUGUAUGGUAGUAAACUUCCACGUGUCUAGAAGGGCAUCGUAGGC` at or over 200 nM in terms of apparent KD of K4 kissing-loop reporter?
*A* NOT MET

*Q* Please tell me: is the sequence AUUUUUUUGUCAGGAUAUUAGUAUGCAUUUAGUUUGUUAGUGAUGUUGAUAUUUUGUUUAUGUAUUUAAGAAGGGAUUUAGCGGU [iiikmullin] at or over 200 nM in terms of apparent KD of K4 kissing-loop reporter?
*A* MET

*Q* Please tell me: is the sequence GGAGGGAUCUCGGCCGCCACUCAUAAGAAAUGGGCCUCAGGGAUAUAGUGAUGUUAUGUAAAGAAGAGGACCGGGAGAAAGAAGG [ExTryptoB.Dc] at or over 200 nM in terms of apparent KD of K4 kissing-loop reporter?
*A* MET

*Q* Please tell me: is the sequence CGAGUGAUGUUCGUUCGUUUAUUUCUUUGACAGGAUAUGCGGAAACGCAGAAGGGUCACCUUUGAGUUAAAGGAAUUUACGUUAU [Ex FMN A 26] at or over 200 nM in terms of apparent KD of K4 kissing-loop reporter?
*A* MET

---

System: MS2 coat protein
method_summary: apparent KD of MS2 coat protein; designed switch direction (-1 OFF switch, 1 ON switch): -1; higher = weaker reporter binding
conditions_used: input ligand: FMN 200 uM
observable: apparent KD of MS2 coat protein (nM)
One number for each entry, in nM.

// known answers, use as guide
UGGUUGUCAGGAUAUACGGUUUUUAACUUUAGUUUUAUAUUGUAGAAGGGACAUGAGGAUCACCCAUGUUACGU [LRO-Excl4-11-Bluer Omei Mod] (Eterna round: R97, puzzle: Exclusion 4) | 29.5
GUCCCACAUGAGGAUCACCCAUGUGAGGAUAUGGUUUCGCUGGCCGUAGCCAGUGGAACCAGAAGGCGCAUGAU [Mat - Exclusion 1 - JL Mod - D2] (Eterna round: R97, puzzle: Exclusion 1) | 25.2
CCGCUAAGAGCAGGAUAUGAGUAACAUGAGGAUCACCCAUGUGGACCAUGAAACAGUCCACGCAGUCAGAAGGGUUACGUGGCA [Eternabot solution 33] (Eterna round: R96, puzzle: Exclusion NG 2) | 38.8

Give me apparent KD of MS2 coat protein for each of these sequences, listed below.
1. AACACGGCAGGAUAUACUUGAGGAUCACCCAAGUUGUUCGCAACAUAAAAUAACUCUUGUAGAAGGGCCAAAAG [Isorbi] (Eterna round: R97, puzzle: Exclusion 3)
2. GCUCACGCAGGAUAUACAUGAGGAUCACCCAUGUUCGAAGGGCGUGGGUACAAAGUCUGUAGAAGGGCGAAAAU [Edrereve] (Eterna round: R97, puzzle: Exclusion 3)
3. AGGUGCUUCAGGAGACAUGAGGAUCACCCAUGUUGAGUUAGCGAGGAUAUCGGUAACCCAUGUGAUGAGAAGGCGCAAACCAAU [Ex NG3 #46] (Eterna round: R96, puzzle: Exclusion NG 3)
4. AGAGAGUCAGGAUAUGACGAAGAGAACAUGAGGAUCACCCAUGUAGCUUCGUAAUUAUCGUCAGAAGGGACGAACU [JR_Ex5_Sub089] (Eterna round: R97, puzzle: Exclusion 5)
5. AAGCUAUCUGUAGGAUAUACAACUGAUCUCGAGGUAGAAGGACAUCCAGUUACGCCAACAUGAGGAUCACCCAUGUGGAUCUUG [Eternabot solution 39] (Eterna round: R96, puzzle: Exclusion NG 1)
6. GUGCCGCGAGGAUAUACAGACGGGUCCAUAACGUGUCUCGGACUUGAGGAUCACCCAAGUAGAAGGCGUUUCAG [salish99_ex2_r4_623] (Eterna round: R97, puzzle: Exclusion 2)

*A*
1: 220; 2: 20.6; 3: 92.9; 4: 15.7; 5: 15.2; 6: 19.9

Give me apparent KD of MS2 coat protein for each of these sequences, listed below.
1. GUUUUAUAUGAAGGAUAUACUUAACAUGAGGAUCACCCAUGUGGUGUUGUGAGUGAGUGAGUUUAGUAGAAGGUCAAUUAUUUU [JMF's solution 33] (Eterna round: R96, puzzle: Exclusion NG 2)
2. GCACUGGCAGGAUAUACAUGAGGAUCACCCAUGUGAUCCCUUAAGUACAAAAGUACUAGUAGAAGGGCCUGUGC [Omei Ex3 Model Bachelor's Dilema v46] (Eterna round: R97, puzzle: Exclusion 3)

*A*
1. 409
2. 307
